system: SF-295 CNS; experiment: NCI tumour cell line growth inhibition, 48 h; in the data active = GI50 below about 0.43 µM; inactive = the rest
Choose one outcome from this list and give only that: active, inactive

Solved entries:
{"columns": ["molecule", "class_label"],
 "data": [
  ["C(=N\\Nc1ccccn1)/c1ccccn1", "active"],
  ["O=c1cccc(C#CC#C[C@H]2O[C@@H]2CO)o1", "inactive"],
  ["CCN(CC)c1ccc(/C=C\\c2cc(C)c3cc(C)ccc3n2)cc1", "inactive"]
]}

For this molecule, state the assay outcome: COCCn1cc(-c2csc(-c3c[nH]c4ccccc34)n2)c2cccnc21
inactive

Assay outcome for [Cl][Bi]([O]c1ccccn1)[O]c1ccccn1 : what was it?
inactive

Dear all, I need the recorded test outcome for CCCCn1c2cc(OCc3cn(-c4ccc(Cl)cc4)nn3)ccc2c2ccnc(C)c21 , thank you.
inactive

Dear all, I need the recorded test outcome for Cc1ccc2c(c1)nc(C(=O)c1ccco1)c(C(F)(F)F)[n+]2[O-] , thank you.
inactive

Check the results log: what was the call for CC1=C(/C=C/C(C)=C\C=C\C(C)=C\C(=O)Nc2ccc3c(c2)OCO3)C(C)(C)CCC1 ?
inactive

Kindly provide the recorded test outcome for the following molecule: C=C1C(=O)O[C@H]2[C@H]1CC/C(COC(=O)NCc1cc3ccccc3[nH]1)=C\CC[C@@]1(C)O[C@@H]21
inactive

Dear all, I need the recorded test outcome for Cc1ccc(C(CN(C)C)C(=O)c2ccccc2)cc1 (stereo not given) , thank you.
inactive

###

Please provide measured TGI for the entries that follow.
tested on: SK-MEL-28 melanoma; assay: NCI tumour cell line growth inhibition, 48 h

{"columns": ["molecule", "TGI"],
 "data": [
  ["COc1ccc(C[C@H]2COC(=O)[C@@H]2Cc2ccccc2)cc1OC", "> 100 µM"],
  ["O=C1NC(=S)NC(=O)C1=Cc1cc2c(cc1[N+](=O)[O-])OCO2", "> 100 µM"],
  ["CCC(=O)Nc1ccc(N2C(=O)/C(=C/c3ccc(O)c(OC)c3)N=C2c2ccccc2)cc1", "> 100 µM"]
]}

For every record below, what is its TGI?
1. CCCCn1c2cc(OCc3cn(-c4ccc(Cl)cc4)nn3)ccc2c2ccnc(C)c21
2. N#CC(=S)Nc1cccc(Cl)c1
3. Cc1c(C#N)cccc1-c1cc(-c2cn(Cc3cccc(C(C)(C)O)n3)nn2)nc(N)n1
4. O=c1c2ccccc2c2ccccc2c(=O)n1-c1cc2c3ccccc3ccc2c2ccccc12
5. CCCCCCCCCCC[N+]1(Cc2ccccc2)CC2CCN(Cc3ccccc3)CC2C1 (stereo unspecified)

1: 14 µM; 2: > 100 µM; 3: > 100 µM; 4: > 100 µM; 5: 1.95 µM

// for each molecule in input: emit TGI
1. C[C@]12CCC3[C@@H](C[C@@H]4SC(Nc5ccccc5)=N[C@@]45CC(=O)CC[C@]35C)[C@@H]1CCC2=O (stereo partly specified)
2. COC(=O)C1=C(C)N(NC(N)=O)C2(N)N(NC(N)=O)C(C)=C(C(=O)OC)C12C(=O)OC (stereo unspecified)

1. > 100 µM
2. > 100 µM

# batch size: 3; output TGI per entry
1. Cc1ccc(S(=O)(=O)CC2CCCn3c2c(C#N)c2ccccc23)cc1 (stereo unspecified)
2. Nc1ccccc1C#C/C=C\C#Cc1ccccc1C(F)(F)F
3. Oc1ccc(O)c(Sc2nnc(CCCCCCCCc3nnc(Sc4cc(O)ccc4O)o3)o2)c1

1: > 100 µM; 2: > 100 µM; 3: > 100 µM

Would you be so kind as to report TGI for each listed record?
1. CC1=C([Se]CC(OC(=O)CC[Se]c2ccccc2)C(=O)NCCCCCC(=O)OCc2ccccc2)C(=O)c2ccccc2C1=O (stereo unspecified)
2. COc1ccc2[nH]c(-c3ccccn3)cc(=O)c2c1
3. CC(=O)CCCCCCCCCCCC[C@@H]1CC[C@H](C)[C@H](O)N1
4. COc1c(-c2ccc(F)cc2)oc2cc(O)cc(O)c2c1=O

1. 7.76 µM
2. > 100 µM
3. > 100 µM
4. > 100 µM

###

system: HOP-92 NSCLC; assay: NCI tumour cell line growth inhibition, 48 h; in the data active = GI50 below about 0.43 µM; inactive = the rest
Valid outcomes are listed here; reply with one: active, inactive

Any idea what this test logged for CC1=C([Se]CC(OC(=O)CC[Se]c2ccccc2)C(=O)NCCCCCC(=O)OCc2ccccc2)C(=O)c2ccccc2C1=O (stereo not given) ?
inactive

Kindly provide the recorded test outcome for the following molecule: C=C1C(=O)O[C@H]2[C@H]1CC/C(COC(=O)/C=C/C(=O)OC/C1=C/CC[C@@]3(C)O[C@H]3[C@H]3OC(=O)C(=C)[C@@H]3CC1)=C\CC[C@@]1(C)O[C@@H]21
inactive

What classification did CC12CCC3C(CC=C4CC(O)CCC43C)C1C/C(=C\N1CCCC1)C2=O (stereo not given) end up with in this test?
inactive

Test call for this molecule, please: CC1=C(/C=C/C(C)=C\C=C\C(C)=C\C(=O)Nc2ccc3c(c2)OCO3)C(C)(C)CCC1
inactive

Record lookup: outcome of this test for COc1ccc(-c2cc(-c3ccc(OC)c(OC)c3)nc(SCCCC(=O)NO)n2)cc1 ?
inactive

What outcome does the record of this test show for CCOP(=O)(OCC)C(NC(c1ccccc1)c1ccccc1)c1ccccc1 (stereo not given) ?
inactive

###

tested on: LXFL 529 NSCLC; test: NCI tumour cell line growth inhibition, 48 h
endpoint_name: TGI

Consider the reported TGI for these compounds:
{"columns": ["compound", "endpoint_name", "readout_value"],
 "data": [
  ["COc1ccc(/C=N/N=C(\\N)NO)cc1OC", "TGI", "> 100 µM"],
  ["O=C(NCCNCCO)N/N=C/c1ccccc1", "TGI", "> 100 µM"],
  ["CCCCCCCCCCCCCCCCCC(=O)OCC(CN(C)CCN(C)C)OC(=O)CCCCCCCCCCCCCCCCC (stereo not given)", "TGI", "> 100 µM"],
  ["COc1c(O)c2c(c3cc(C(=O)N4CCc5c4c(O)c(OC)c4[nH]c(C(=O)N6CC7CC78C6=CC(=O)c6[nH]cc(C)c68)cc54)[nH]c13)CCN2C(N)=O (stereo not given)", "TGI", "0.0329 µM"]
]}

What TGI value was documented for this compound, CC(C)C(=O)/C=C/c1ccccc1 ?
> 100 µM

###

Exercise: state measured TGI for each of the molecules provided.
test system: SK-MEL-2 melanoma; assay: NCI tumour cell line growth inhibition, 48 h
Give bare numbers, in µM.

Completed entries (count: 3):
{"columns": ["molecule", "endpoint_name", "readout_value"],
 "data": [
  ["O=C1c2cccc3cc([N+](=O)[O-])cc(c23)C(=O)N1CCNCCNCCNCCN1C(=O)c2cccc3cc([N+](=O)[O-])cc(c23)C1=O", "TGI", 0.283],
  ["CN1CCCC(OC(=O)c2cc3cc(CCl)ccc3oc2=O)C1 (stereo not given)", "TGI", 33.9],
  ["Cc1c(Cl)c(=O)oc2cc(OCC(O)COC(C)C)ccc12 (stereo not given)", "TGI", 58.2]
]}

Proceed to the following item.
I have this molecule here, Cc1cccc(-c2nc3c(C(=O)NCCN(C)C)cccc3[nH]2)c1 , and I need its recorded TGI.
3.26

###

Please provide measured TGI for the entries that follow.
tested on: SK-MEL-5 melanoma; assay: NCI tumour cell line growth inhibition, 48 h

Your task in this section: give TGI for each listed record.
1. CCCCN(CCCC)C1=Nc2ccccc2-n2c(nnc2C(=O)OCC)C1
2. Cc1ccc(C(=O)NN=C(/N=N/c2cccc(C)c2)c2ccc(N(C)C)cc2)cc1

1. 38.5 µM
2. > 100 µM

###

Could you please report measured TGI for the items listed next?
tested on: MDA-MB-231 breast; experiment: NCI tumour cell line growth inhibition, 48 h

{"columns": ["compound", "assay_target", "TGI"],
 "data": [
  ["CCN(CC)c1ccc(/C=C\\c2cc(C)c3cc(C)ccc3n2)cc1", "MDA-MB-231 breast", "> 100 µM"]
]}

Need TGI for each of these compounds.
1. CC(=O)Nc1ccc(/C=C/[N+](=O)[O-])cc1
2. CC(=O)Nc1nc(C)c(S(=O)(=O)NC(=O)N2c3ccccc3CCc3ccccc32)s1
3. Cn1c(=O)[nH]n(-c2ccc3ccccc3c2)c1=O
4. C/C(=C\COP(=O)(O)OP(=O)(O)O)CC/C=C(\C)CNc1ccccc1

["5.12 µM", "> 100 µM", "> 100 µM", "> 50 µM"]

Go through the items and report each one's TGI.
1. CN1C(=O)C(CCO)(C(C)(C)C)c2ccccc21 (stereo not given)
2. O=C(O)c1ccc2c(c1)Cc1cc([N+](=O)[O-])ccc1-2

["> 100 µM", "> 100 µM"]

Look up TGI for the entries below, preserving their order.
1. CN(c1ccc(Cl)cc1)S(=O)(=O)c1ccccc1
2. COCCN(C(=O)c1ccccc1)C1CCC(=O)c2[nH]c3ccccc3c21 (stereo not given)
3. O=c1cc(C(F)(F)F)c2cc3c(cc2o1)NCCC3
4. CC(=O)NCC1OC2COC(c3ccccc3)OC2C2N=C(c3ccccc3)OC12 (stereo not given)
5. CCCOC1OC(CS(=O)(=O)O)C(OC(C)=O)C(OC(C)=O)C1OC(C)=O (stereo not given)

["> 100 µM", "15.9 µM", "> 100 µM", "> 100 µM", "> 100 µM"]
